Kindly state Production rate of Alvocidib for each of the entries shown.
Assay: Evaluation of conversion rate to active form in buffer solution (Experimental Example 1)
Assay type: physicochemical
Details: pH5.0, 3 hr, 37° C., 25 umol/L in buffer solution
Give the number; % is assumed, so skip it.

// Production rate of Alvocidib lookup, molecule = CCN(C[C@@H]1CCCCN1)C(=O)Oc1cc(O)c2c(=O)cc(-c3ccccc3Cl)oc2c1[C@H]1CCN(C)C[C@H]1O [Example 1, ditrifluoroacetate] , result: 1.8

// Production rate of Alvocidib lookup, molecule = CC(C)N(CC1CCCCN1)C(=O)Oc1cc(O)c2c(=O)cc(-c3ccccc3Cl)oc2c1[C@H]1CCN(C)C[C@H]1O (stereo partly drawn) [Example 10] , result: 3.9

// Production rate of Alvocidib lookup, molecule = CCN(C[C@H]1CCCCN1)C(=O)Oc1cc(O)c2c(=O)cc(-c3ccccc3Cl)oc2c1[C@H]1CCN(C)C[C@H]1O [Example 2] , result: 1.6

// Production rate of Alvocidib lookup, molecule = CCCN(C[C@H]1CCCCN1)C(=O)Oc1cc(O)c2c(=O)cc(-c3ccccc3Cl)oc2c1[C@H]1CCN(C)C[C@H]1O [Example 6] , result: 2.6

// Production rate of Alvocidib lookup, molecule = CN1CC[C@H](c2c(OC(=O)N(CCCC(F)(F)F)CC3CCCCN3)cc(O)c3c(=O)cc(-c4ccccc4Cl)oc23)[C@H](O)C1 (stereo partly drawn) [Example 14] , result: 33.4

// Production rate of Alvocidib lookup, molecule = CCCN(C[C@@H]1CCCCN1)C(=O)Oc1cc(O)c2c(=O)cc(-c3ccccc3Cl)oc2c1[C@H]1CCN(C)C[C@H]1O [Example 5] , result: 3.4

###

Assay: Evaluation of conversion rate to active form in buffer solution (Experimental Example 1)
Type: physicochemical
Conditions: pH5.0, 3 hr, 37° C., 25 umol/L in buffer solution
Structures can show the parent of a compound that is named as a salt.
Class assignment keyed on Production rate of Alvocidib, ranges low value: < 3%; medium value: ≥ 3% and < 5%; high value: ≥ 5%

*Q* Where would CN1CC[C@H](c2c(OC(=O)N(C)C[C@H]3CCCCN3)cc(O)c3c(=O)cc(-c4ccccc4Cl)oc23)[C@H](O)C1 land among the classes by reported Production rate of Alvocidib?
*A* low value

*Q* Where would COCCN(CC1CCCCN1)C(=O)Oc1cc(O)c2c(=O)cc(-c3ccccc3Cl)oc2c1[C@H]1CCN(C)C[C@H]1O (stereo partly shown) land among the classes by reported Production rate of Alvocidib?
*A* medium value

*Q* Where would CCNC(=O)Oc1cc(O)c2c(=O)cc(-c3ccccc3Cl)oc2c1[C@H]1CCN(C)C[C@H]1O [Comparative Example 1, reference compound] land among the classes by reported Production rate of Alvocidib?
*A* high value

*Q* Where would CCN(CC1CCCCN1)C(=O)Oc1cc(O)c2c(=O)cc(-c3ccccc3Cl)oc2c1[C@H]1CCN(C)C[C@H]1O (stereo partly shown) [Example 7, dihydrochloride] land among the classes by reported Production rate of Alvocidib?
*A* low value

*Q* Where would CN1CC[C@H](c2c(OC(=O)N(C)C[C@@H]3CCCCN3)cc(O)c3c(=O)cc(-c4ccccc4Cl)oc23)[C@H](O)C1 land among the classes by reported Production rate of Alvocidib?
*A* medium value

*Q* Where would CN1CC[C@H](c2c(OC(=O)N(CCF)CC3CCCCN3)cc(O)c3c(=O)cc(-c4ccccc4Cl)oc23)[C@H](O)C1 (stereo partly shown) land among the classes by reported Production rate of Alvocidib?
*A* medium value

*Q* Where would CN1CC[C@H](c2c(OC(=O)N(Cc3ccccc3)CC3CCCCN3)cc(O)c3c(=O)cc(-c4ccccc4Cl)oc23)[C@H](O)C1 (stereo partly shown) land among the classes by reported Production rate of Alvocidib?
*A* medium value

*Q* Where would CCN(CCC1CCCCN1)C(=O)Oc1cc(O)c2c(=O)cc(-c3ccccc3Cl)oc2c1[C@H]1CCN(C)C[C@H]1O (stereo partly shown) land among the classes by reported Production rate of Alvocidib?
*A* low value

*Q* Where would CN1CC[C@H](c2c(OC(=O)N(CCC(F)(F)F)CC3CCCCN3)cc(O)c3c(=O)cc(-c4ccccc4Cl)oc23)[C@H](O)C1 (stereo partly shown) land among the classes by reported Production rate of Alvocidib?
*A* high value

*Q* Where would CCCN(CC1CCCCN1)C(=O)Oc1cc(O)c2c(=O)cc(-c3ccccc3Cl)oc2c1[C@H]1CCN(C)C[C@H]1O (stereo partly shown) land among the classes by reported Production rate of Alvocidib?
*A* medium value

###

Test: Evaluation of conversion rate to active form in buffer solution (Experimental Example 1)
Format: physicochemical
Details: pH5.5, 3 hr, 37° C., 25 umol/L in buffer solution
Where a name gives a salt, the structure may show the parent alone.
Kindly state Production rate of Alvocidib for each of the entries shown.
Give the number; % is assumed, so skip it.

// Production rate of Alvocidib lookup, compound = CN1CC[C@H](c2c(OC(=O)N(CCCC(F)(F)F)CC3CCCCN3)cc(O)c3c(=O)cc(-c4ccccc4Cl)oc23)[C@H](O)C1 (stereo partly shown) [Example 14] , result: 37.9

// Production rate of Alvocidib lookup, compound = CCN(CCC1CCCCN1)C(=O)Oc1cc(O)c2c(=O)cc(-c3ccccc3Cl)oc2c1[C@H]1CCN(C)C[C@H]1O (stereo partly shown) [Example 16] , result: 0.0

// Production rate of Alvocidib lookup, compound = COCCN(CC1CCCCN1)C(=O)Oc1cc(O)c2c(=O)cc(-c3ccccc3Cl)oc2c1[C@H]1CCN(C)C[C@H]1O (stereo partly shown) [Example 12] , result: 9.8

// Production rate of Alvocidib lookup, compound = CN1CC[C@H](c2c(OC(=O)N(CCC(F)(F)F)CC3CCCCN3)cc(O)c3c(=O)cc(-c4ccccc4Cl)oc23)[C@H](O)C1 (stereo partly shown) [Example 13] , result: 17.7

// Production rate of Alvocidib lookup, compound = CCNC(=O)Oc1cc(O)c2c(=O)cc(-c3ccccc3Cl)oc2c1[C@H]1CCN(C)C[C@H]1O [Comparative Example 1, reference compound] , result: 99.3

// Production rate of Alvocidib lookup, compound = CN1CC[C@H](c2c(OC(=O)N(C)C[C@H]3CCCCN3)cc(O)c3c(=O)cc(-c4ccccc4Cl)oc23)[C@H](O)C1 [Example 4] , result: 5.5

// Production rate of Alvocidib lookup, compound = CN1CC[C@H](c2c(OC(=O)N(CCF)CC3CCCCN3)cc(O)c3c(=O)cc(-c4ccccc4Cl)oc23)[C@H](O)C1 (stereo partly shown) [Example 11] , result: 14.0

// Production rate of Alvocidib lookup, compound = CCCN(CC1CCCCN1)C(=O)Oc1cc(O)c2c(=O)cc(-c3ccccc3Cl)oc2c1[C@H]1CCN(C)C[C@H]1O (stereo partly shown) [Example 9] , result: 7.2

// Production rate of Alvocidib lookup, compound = CCN(CC1CCCCN1)C(=O)Oc1cc(O)c2c(=O)cc(-c3ccccc3Cl)oc2c1[C@H]1CCN(C)C[C@H]1O (stereo partly shown) [Example 7, dihydrochloride] , result: 5.1

// Production rate of Alvocidib lookup, compound = CCCN(C[C@H]1CCCCN1)C(=O)Oc1cc(O)c2c(=O)cc(-c3ccccc3Cl)oc2c1[C@H]1CCN(C)C[C@H]1O [Example 6] , result: 6.2

// Production rate of Alvocidib lookup, compound = CCN(C[C@H]1CCCCN1)C(=O)Oc1cc(O)c2c(=O)cc(-c3ccccc3Cl)oc2c1[C@H]1CCN(C)C[C@H]1O [Example 2] , result: 5.3

// Production rate of Alvocidib lookup, compound = CCN(C[C@@H]1CCCCN1)C(=O)Oc1cc(O)c2c(=O)cc(-c3ccccc3Cl)oc2c1[C@H]1CCN(C)C[C@H]1O [Example 1, ditrifluoroacetate] , result: 5.1

// Production rate of Alvocidib lookup, compound = CN1CC[C@H](c2c(OC(=O)N(C)C[C@@H]3CCCCN3)cc(O)c3c(=O)cc(-c4ccccc4Cl)oc23)[C@H](O)C1 [Example 3] , result: 6.5

###

Assay: Stability evaluation of solution formulation (Experimental Example 2)
Assay type: physicochemical
Conditions: solution formulation, pH5.0, 0 week
// returns Condition not met unless Production rate of Alvocidib is strictly below 0.7%, in which case Condition met

*Q* Dear colleague, could you confirm whether Production rate of Alvocidib of CNCCN(C)C(=O)Oc1cc(O)c2c(=O)cc(-c3ccccc3Cl)oc2c1[C@H]1CCN(C)C[C@H]1O [Comparative Example 14, reference compound] falls below 0.7%? Thanks.
*A* Condition not met

*Q* Dear colleague, could you confirm whether Production rate of Alvocidib of CCCN(C[C@@H]1CCCCN1)C(=O)Oc1cc(O)c2c(=O)cc(-c3ccccc3Cl)oc2c1[C@H]1CCN(C)C[C@H]1O falls below 0.7%? Thanks.
*A* Condition met

*Q* Dear colleague, could you confirm whether Production rate of Alvocidib of CCN(C[C@@H]1CCCCN1)C(=O)Oc1cc(O)c2c(=O)cc(-c3ccccc3Cl)oc2c1[C@H]1CCN(C)C[C@H]1O [Example 1, ditrifluoroacetate] falls below 0.7%? Thanks.
*A* Condition met

*Q* Dear colleague, could you confirm whether Production rate of Alvocidib of CCN(C[C@H]1CCCCN1)C(=O)Oc1cc(O)c2c(=O)cc(-c3ccccc3Cl)oc2c1[C@H]1CCN(C)C[C@H]1O falls below 0.7%? Thanks.
*A* Condition met

*Q* Dear colleague, could you confirm whether Production rate of Alvocidib of CN1CC[C@H](c2c(OC(=O)N(C)CCN)cc(O)c3c(=O)cc(-c4ccccc4Cl)oc23)[C@H](O)C1 [Comparative Example 13, reference compound] falls below 0.7%? Thanks.
*A* Condition not met
